- Tested on: SK-MEL-28 melanoma
- TEST METHOD NOTES: NCI-60 one-dose screen, 48 h (100 = growth as untreated, 0 = no growth, -100 = all killed)
- CONDITIONS USED: 10 µM unless noted
The panel holds about 83,000 compounds, 20% with a hit somewhere; the sample as a whole holds those more often.
Measured growth of individual entries
# unit: % | format: bare number

In plain terms, Cc1ccc2ccc3ccc(C)nc3c2n1.Cc1ccc2ccc3ccc(C)nc3c2n1.Oc1c(Cl)cc(Cl)c2ccc(CN3CCCCC3)nc12.[Ru] has a documented growth of -89.9

// growth value for O=C(CCN1C(=O)/C(=C/c2ccccc2)SC1=S)N1CCOCC1 : 85.6

response.value for CN(C)CCCOc1c2ccccc2nc2c1oc1ccc(Cl)cc12 (field: growth) = 9.1

Looking up Clc1ccc(Cc2nnc3sc(-c4cccnc4)nn23)cc1 , I see its growth listed as 109
